Listed here: items and their measured inhibition at 10 µM.
Target: B1R receptor of the rat (CHO K1 cells stably transfected with the B1R gene of the rat) (Rattus norvegicus, UniProt P97583)
Construct: expressed in transfected cells; host or cells: CHO K1 cells (Chinese hamster ovary), stably transfected
Sequence (P97583 1-337): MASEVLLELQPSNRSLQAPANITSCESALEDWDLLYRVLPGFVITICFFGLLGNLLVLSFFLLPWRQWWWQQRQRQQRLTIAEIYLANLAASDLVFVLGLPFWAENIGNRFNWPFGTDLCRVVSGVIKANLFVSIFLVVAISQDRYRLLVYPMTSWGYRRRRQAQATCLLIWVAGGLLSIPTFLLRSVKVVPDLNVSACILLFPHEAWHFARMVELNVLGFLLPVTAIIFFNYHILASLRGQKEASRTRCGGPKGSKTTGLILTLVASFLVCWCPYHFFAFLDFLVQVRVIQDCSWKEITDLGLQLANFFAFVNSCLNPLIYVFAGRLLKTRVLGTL
Assay: Functional study on the bradykinin receptor 1 (B1R), Ca2+ fluorescence (Fluo-4) FLIPR/Novostar assay, rB1R cells
Format: cell-based
Settings: CHO-K1, 10 μM, library compounds CC_H, read-out: % Inhibition (r-B1R) at 10 μM
API: value field is a number in %; no unit string.

# annotated cases, reported inhibition at 10 µM shown
CN(C(=O)c1ccc2c(c1)C(NC(=O)CCC1CCCC1)CC2)C1CCN(c2ccnc(C(C)(C)C)n2)CC1 (stereo not shown) = 96
CN(C(=O)c1ccc2c(c1)C(NC(=O)CCC1CCCC1)CC2)C1CCN(c2ccnc(S(C)(=O)=O)n2)CC1 (stereo not shown) = 90
CN(C(=O)c1ccc2c(c1)C(NC(=O)CCC1CCCC1)CC2)C1CCN(c2ccnc(C3CC3)n2)CC1 (stereo not shown) = 95
Cc1cc(N2CCC(N(C)C(=O)c3ccc4c(c3)C(NC(=O)c3cccnc3C(F)(F)F)CC4)CC2)nc(N(C)C)n1 (stereo not shown) = 102
Cc1ncc2n1C(=O)N(C1CCC(N(C)C(=O)c3ccc4c(c3)C(NC(=O)c3cccnc3C(F)(F)F)CC4)CC1)C2 (stereo not shown) = 96

Record CN(C)c1nccc(N2CCC(N(C)C(=O)c3ccc4c(c3)C(NC(=O)CCC3CCCC3)CC4)CC2)n1 (stereo not shown) . Reported inhibition at 10 µM: 101

Record CN(C(=O)c1ccc2c(c1)C(NC(=O)c1ccccc1Cl)CC2)C1CCN(c2ncncc2F)CC1 (stereo not shown) . Reported inhibition at 10 µM: 94

###

Target: human B1R receptor (CHO K1 cells stably transfected with the human B1R gene) (Homo sapiens, UniProt P46663)
Construct: expressed in transfected cells; host or cells: CHO K1 cells (Chinese hamster ovary), stably transfected
Sequence (P46663 whole entry): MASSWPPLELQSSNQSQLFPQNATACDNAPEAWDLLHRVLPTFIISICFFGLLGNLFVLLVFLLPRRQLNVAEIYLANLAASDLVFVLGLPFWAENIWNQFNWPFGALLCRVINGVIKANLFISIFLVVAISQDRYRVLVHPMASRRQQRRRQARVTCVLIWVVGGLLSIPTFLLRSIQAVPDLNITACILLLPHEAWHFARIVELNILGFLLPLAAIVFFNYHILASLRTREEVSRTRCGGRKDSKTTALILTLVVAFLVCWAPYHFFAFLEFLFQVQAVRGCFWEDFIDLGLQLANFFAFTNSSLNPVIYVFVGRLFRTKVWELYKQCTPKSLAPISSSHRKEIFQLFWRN
Assay: Functional study on the bradykinin receptor 1 (B1R), Ca2+ fluorescence (Fluo-4) FLIPR/Novostar assay, hB1R cells
Format: cell-based
Details: CHO-K1, read-out: % inhibition (human B1R) at 10 μM
Output t for inhibition at 10 µM not less than 90%; output f otherwise.

Examples from the recorded data:
Cc1cc(N2CCC(CN(C)C(=O)c3ccc4c(c3)[C@H](NC(=O)c3ccccc3Cl)CC4)CC2)ccn1 = f
Cc1cc(N2CCC(N(C)C(=O)c3ccc4c(c3)[C@H](NC(=O)c3cccc(C(F)(F)F)c3Cl)CC4)CC2)nc(C)n1 = t
CC(C)N(C(=O)c1ccc(F)cc1Cl)[C@@H]1CCc2cc(F)c(C(=O)N(C)C3CCN(c4ccncc4)CC3)cc21 = t
CN(C(=O)c1ccc2c(c1)[C@H](NC(=O)c1ccccc1Cl)CC2)C1CCN(C(=O)CCN2CCCCC2)CC1 = f
CN(C(=O)c1ccc2c(c1)[C@H](NS(=O)(=O)c1ccc(F)cc1)CC2)C1CCN(c2ccncc2)CC1 = t
COc1ncccc1C(=O)N[C@@H]1CCc2ccc(C(=O)N(C)C3CCN(c4ccncc4)CC3)cc21 = t

From here, focus on the item given below.
Check if inhibition at 10 µM >= 90% (inclusive). Item: `CN(C(=O)c1ccc2c(c1)[C@H](NC(=O)C1CCC1)CC2)C1CCN(c2ccncc2)CC1`
t

###

Listed here: items and their measured inhibition at 10 µM.
Biological target: human B1R receptor (CHO K1 cells stably transfected with the human B1R gene) (Homo sapiens, UniProt P46663)
Construct: expressed in transfected cells; host or cells: CHO K1 cells (Chinese hamster ovary), stably transfected
Assay: Functional study on the bradykinin receptor 1 (B1R), Ca2+ fluorescence (Fluo-4) FLIPR/Novostar assay, hB1R cells
Assay type: cell-based
Details: CHO-K1, read-out: % Inhibition (h-B1R) at 10 μM
API: value field is a number in %; no unit string.

# annotated cases, reported inhibition at 10 µM shown
O=C(NCCC1CCN(c2ccncc2)CC1)c1ccc2c(c1)C(NS(=O)(=O)c1c(Cl)cccc1C(F)(F)F)CC2 (stereo not drawn) = 100
CN(C(=O)c1ccc2c(c1)C(NC(=O)CCC1CCCC1)CCO2)C1CCN(c2ccncc2)CC1 (stereo not drawn) = 99

Record Cc1cccc(C)c1C(=O)NC1CCOc2ccc(C(=O)N(C)C3CCN(c4ccncc4)CC3)cc21 (stereo not drawn) . Reported inhibition at 10 µM: 84

Record CN(C(=O)c1ccc2c(c1)C(NS(=O)(=O)Cc1ccccc1C(F)(F)F)CC2)C1CCN(c2ccc3cnccc3c2)CC1 (stereo not drawn) . Reported inhibition at 10 µM: 99

Record CN(C(=O)c1ccc2c(c1)C(NC(=O)c1cccc(Cl)c1Cl)CCO2)C1CCN(c2ccncc2)CC1 (stereo not drawn) . Reported inhibition at 10 µM: 97

Record Cc1cc(N2CCC(N(C)C(=O)c3ccc4c(c3)C(NC(=O)CCC3CCCC3)CC4)CC2)cc(C)n1 (stereo not drawn) . Reported inhibition at 10 µM: 100

###

Molecular target: B1R receptor of the rat (CHO K1 cells stably transfected with the B1R gene of the rat) (Rattus norvegicus)
Construct: expressed in transfected cells; host or cells: CHO K1 cells (Chinese hamster ovary), stably transfected
Test: Functional study on the bradykinin receptor 1 (B1R), Ca2+ fluorescence (Fluo-4) FLIPR/Novostar assay, rB1R cells
Assay type: cell-based
Conditions: CHO-K1, 10 μM, library compounds CC_H, read-out: % Inhibition (r-B1R) at 10 μM
measure: inhibition at 10 µM (%)
API: value field is a number in %; no unit string.

# annotated cases, reported inhibition at 10 µM shown
CN(C(=O)c1ccc2c(c1)C(NC(=O)c1ccccc1Cl)CC2)C1CCN(c2ccnc(C3CC3)n2)CC1 (stereo not shown) = 100
CN(C(=O)c1ccc2c(c1)C(NC(=O)c1ccccc1Cl)CC2)C1CCN(c2ccnnc2)CC1 (stereo not shown) = 103
CN(C(=O)c1ccc2c(c1)C(NC(=O)c1ccccc1Cl)CC2)C1CCN(c2ccnc(S(C)(=O)=O)n2)CC1 (stereo not shown) = 102

Record Cc1ncc2n1C(=O)N(C1CCC(N(C)C(=O)c3ccc4c(c3)C(NC(=O)c3ccccc3Cl)CC4)CC1)C2 (stereo not shown) . Reported inhibition at 10 µM: 84

Record CN(C(=O)c1ccc2c(c1)C(NC(=O)CCC1CCCC1)CC2)C1CCN(c2ccnnc2)CC1 (stereo not shown) . Reported inhibition at 10 µM: 93

Record CN(C(=O)c1ccc2c(c1)C(NC(=O)c1cccnc1C(F)(F)F)CC2)C1CCN(c2ccnc(C(C)(C)C)n2)CC1 (stereo not shown) . Reported inhibition at 10 µM: 99

Record CN(C)C(=O)c1cc(N2CCC(N(C)C(=O)c3ccc4c(c3)C(NC(=O)c3cccnc3C(F)(F)F)CC4)CC2)ccn1 (stereo not shown) . Reported inhibition at 10 µM: 74

###

Target: human B1R receptor (CHO K1 cells stably transfected with the human B1R gene) (Homo sapiens)
Construct: expressed in transfected cells; host or cells: CHO K1 cells (Chinese hamster ovary), stably transfected
Experiment: Functional study on the bradykinin receptor 1 (B1R), Ca2+ fluorescence (Fluo-4) FLIPR/Novostar assay, hB1R cells
Type: cell-based
Settings: CHO-K1, read-out: % Inhibition (h-B1R) at 10 μM
Listed here: items and their measured inhibition at 10 µM.

# annotated cases, reported inhibition at 10 µM shown
CC(C)CC(=O)NC1CCc2ccc(C(=O)N(C)C3CCN(c4ccncc4)CC3)cc21 (stereo not drawn) = 100%
Cc1cc(N2CCC(N(C)C(=O)c3ccc4c(c3)C(NC(=O)c3sccc3Cl)CC4)CC2)cc(C)n1 (stereo not drawn) = 100%

Record CN(C(=O)c1ccc2c(c1)C(N(C)C(=O)CCC1CCCC1)CC2)C1CCN(c2ccncc2)CC1 (stereo not drawn) . Reported inhibition at 10 µM: 100%

Record CC(C)CC(=O)NC1CC(C)(C)c2ccc(C(=O)N(C)C3CCN(c4ccncc4)CC3)cc21 (stereo not drawn) . Reported inhibition at 10 µM: 100%

Record CN(C(=O)NC1CCc2cc(C(=O)N(C)C3CCN(c4ccncc4)CC3)ccc21)c1ccccc1Cl (stereo not drawn) . Reported inhibition at 10 µM: 100%

Record O=C(NCCC1CCN(c2ccncc2)CC1)c1ccc2c(c1)C(NC(=O)c1cc(F)ccc1Cl)CC2 (stereo not drawn) . Reported inhibition at 10 µM: 99%

Record CN(C(=O)c1ccc2c(c1)C(N(C)C(=O)c1cncnc1)CC2)C1CCN(c2ccncc2)CC1 (stereo not drawn) . Reported inhibition at 10 µM: 96%

Record CN(C(=O)c1ccc2c(c1)C(NC(=O)c1sccc1Cl)CC2)C1CCN(c2ccc3cnccc3c2)CC1 (stereo not drawn) . Reported inhibition at 10 µM: 98%
